Test target: Disintegrin and metalloproteinase domain-containing protein 17 (Homo sapiens) (UniProt P78536)
Sequence (P78536 whole entry, the tested form may be a part): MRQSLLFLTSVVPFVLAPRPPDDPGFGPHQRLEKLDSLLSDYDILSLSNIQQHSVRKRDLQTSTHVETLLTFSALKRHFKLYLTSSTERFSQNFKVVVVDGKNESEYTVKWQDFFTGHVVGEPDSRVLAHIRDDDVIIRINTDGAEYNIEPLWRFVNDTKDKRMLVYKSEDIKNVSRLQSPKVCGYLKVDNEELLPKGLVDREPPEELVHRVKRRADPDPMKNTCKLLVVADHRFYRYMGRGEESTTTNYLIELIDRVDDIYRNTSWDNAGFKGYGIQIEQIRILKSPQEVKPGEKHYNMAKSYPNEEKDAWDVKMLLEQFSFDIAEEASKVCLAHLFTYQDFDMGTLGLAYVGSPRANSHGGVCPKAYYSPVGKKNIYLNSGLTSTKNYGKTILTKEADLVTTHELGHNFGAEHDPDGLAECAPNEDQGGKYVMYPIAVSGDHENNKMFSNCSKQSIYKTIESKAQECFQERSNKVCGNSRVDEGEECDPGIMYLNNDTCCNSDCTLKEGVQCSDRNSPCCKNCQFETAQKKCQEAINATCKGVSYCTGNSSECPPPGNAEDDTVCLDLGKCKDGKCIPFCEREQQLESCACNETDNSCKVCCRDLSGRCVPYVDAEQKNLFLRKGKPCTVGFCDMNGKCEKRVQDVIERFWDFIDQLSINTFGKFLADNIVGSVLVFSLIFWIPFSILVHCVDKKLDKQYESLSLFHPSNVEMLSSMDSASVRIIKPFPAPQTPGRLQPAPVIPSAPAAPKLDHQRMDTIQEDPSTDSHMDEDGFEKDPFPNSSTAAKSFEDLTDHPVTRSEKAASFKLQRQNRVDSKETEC
Test name: Inhibition of TACE in human THP1 cell lysate at 0.1 uM/L by spectrofluorimetric ELISA relative to control
Assay type: cell-free
Conditions used: THP-1
Observable: inhibition (%)

Would you please look over these solved cases?
[[record]]
compound = "CC(C(=O)O)N1CCCN(c2ccc(OCc3ccc(-c4ccccc4)cc3)cc2)C1=O (stereo not given)"
endpoint_result = 28

[[record]]
compound = "CC(C(=O)O)N1CCN(c2ccc(OCc3ccc(-c4ccccc4)cc3)cc2)C1=O (stereo not given)"
endpoint_result = 30

[[record]]
compound = "COc1ccc(CSc2ccc(N3CCN(C(C)C(=O)NO)C3=O)cc2)cc1 (stereo not given)"
endpoint_result = 42


I = CC(C(=O)NO)N1CCN(c2cccc(OCc3ccc([N+](=O)[O-])cc3)c2)C1=O (stereo not given)
II = CC(C(=O)O)N1CCN(c2ccc(OCc3ccccn3)cc2)C1=O (stereo not given)
[ask] Short answer wanted: higher inhibition, I or II ? Which one? Tell me its label.
[reply] I

----------
Test target: Disintegrin and metalloproteinase domain-containing protein 17 (Homo sapiens)
Test name: Inhibition of TACE in human THP1 cell lysate at 0.1 uM/L by spectrofluorimetric ELISA relative to control
Assay type: cell-free
Conditions used: THP-1
Observable: inhibition (%)

Study these solved cases before continuing.
[[record]]
compound = "CC(C)Cc1cc(COc2ccc(N3CCCN(C(C)C(=O)O)C3=O)cc2)c2ccccc2n1 (centres undefined)"
test_target = "Disintegrin and metalloproteinase domain-containing protein 17 (Homo sapiens)"
observable = "inhibition"
endpoint_result = 20

[[record]]
compound = "CCc1cc(COc2ccc(N3CCCN(C(C)C(=O)NO)C3=O)cc2)c2ccccc2n1 (centres undefined)"
test_target = "Disintegrin and metalloproteinase domain-containing protein 17 (Homo sapiens)"
observable = "inhibition"
endpoint_result = 34


P = COc1ccc(COc2ccc(N3CCN(C(C)C(=O)NO)C3=O)cc2)cc1 (centres undefined)
Q = COc1ccc(COc2ccc(N3CCCN(C(C)C(=O)NO)C3=O)cc2)cc1 (centres undefined)
[ask] Which value of inhibition is greater, the one for P or the one for Q ? Record your answer as the label of the chosen record.
[reply] P

----------
Test target: Disintegrin and metalloproteinase domain-containing protein 17 (Homo sapiens) (UniProt P78536)
Test name: Inhibition of TACE in human THP1 cell lysate at 0.1 uM/L by spectrofluorimetric ELISA relative to control
Format: cell-free
Conditions used: THP-1
Observable: inhibition (%)

[[record]]
molecule = "CC(C(=O)O)N1CCCN(c2ccc(OCc3cc(-c4ccccc4)nc4ccccc34)cc2)C1=O (stereo not given)"
observable = "inhibition"
endpoint_result = 31

[[record]]
molecule = "CC(C(=O)NO)N1CCN(c2cccc(OCc3ccccc3)c2)C1=O (stereo not given)"
observable = "inhibition"
endpoint_result = 39

[[record]]
molecule = "CC(C(=O)NO)N1CCCN(c2ccc(OCc3ccccc3)cc2)C1=O (stereo not given)"
observable = "inhibition"
endpoint_result = 28

[[record]]
molecule = "CC(C(=O)O)N1CCN(c2ccc(OCc3cc(-c4ccccc4)nc4ccccc34)cc2)C1=O (stereo not given)"
observable = "inhibition"
endpoint_result = 30

[[record]]
molecule = "CC(C)C[C@H](CC(=O)NO)C(=O)N[C@@H](C)C(=O)N(c1cccc2ccccc12)[C@@H](C)C(=O)NCCN"
observable = "inhibition"
endpoint_result = 28

